molecular target: Cyclin-dependent kinase 4 (Homo sapiens); assay: Inhibition of CDK4-specific Rb-S780 phosphorylation of HCT116 cells at 1xIC50 for 24 hr; format: functional, cell-based; conditions: HCT-116
List of inhibition values.
Unit % implied. Number only.

| COMPOUND | RESULT_TYPE | VAL |
| --- | --- | --- |
| O=C1NC(=O)c2c1c1c3ccccc3[nH]c1c1c2c2cccc3c2n1C(CO)CC3 (configuration not stated) | inhibition | 53 |
| O=C1NC(=O)c2c1c1c3ccccc3[nH]c1c1c2c2cccc3c2n1CC(CO)C3 (configuration not stated) | inhibition | 21 |
| O=C1NC(=O)c2c1c1c3ccc(F)cc3[nH]c1c1c2c2cccc3c2n1CC(CO)C3 (configuration not stated) | inhibition | 25 |
| COc1ccc2c(c1)[nH]c1c2c2c(c3c4cccc5c4n(c13)CC(CO)C5)C(=O)NC2=O (configuration not stated) | inhibition | 69 |
| O=C1NC(=O)c2c1c1c3ccccc3[nH]c1c1c2c2cccc3c2n1CC(CO)CC3 (configuration not stated) | inhibition | 71 |
| O=C1NC(=O)c2c1c1c3ccc(Br)cc3[nH]c1c1c2c2cccc3c2n1CC(CO)C3 (configuration not stated) | inhibition | 56 |

From here, focus on the item given below.
Return inhibition for the following compound: O=C1NC(=O)c2c1c1c3ccccc3[nH]c1c1c2c2cccc3c2n1CCC3CO (configuration not stated)
0

====

target: Cyclin-dependent kinase 4/cyclin D1 (Homo sapiens, UniProt P11802); assay: Inhibition of Cyclin D1-cyclin-dependent kinase 4 mediated Rb21-phosphorylation; assay type: protein-complex assay; details: in the assay text read “RbING-phosphorylation” for “Rb21-phosphorylation”
Sequence (P11802 whole entry): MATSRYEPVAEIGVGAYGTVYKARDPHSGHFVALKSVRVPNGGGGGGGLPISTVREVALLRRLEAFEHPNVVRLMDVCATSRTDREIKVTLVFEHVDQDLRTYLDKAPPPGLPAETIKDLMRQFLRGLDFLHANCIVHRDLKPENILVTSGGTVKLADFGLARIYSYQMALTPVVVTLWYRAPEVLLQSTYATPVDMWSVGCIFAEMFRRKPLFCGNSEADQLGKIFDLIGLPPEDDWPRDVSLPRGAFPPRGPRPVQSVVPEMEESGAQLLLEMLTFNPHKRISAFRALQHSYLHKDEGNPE
Sequence (P24385 whole entry, further chain): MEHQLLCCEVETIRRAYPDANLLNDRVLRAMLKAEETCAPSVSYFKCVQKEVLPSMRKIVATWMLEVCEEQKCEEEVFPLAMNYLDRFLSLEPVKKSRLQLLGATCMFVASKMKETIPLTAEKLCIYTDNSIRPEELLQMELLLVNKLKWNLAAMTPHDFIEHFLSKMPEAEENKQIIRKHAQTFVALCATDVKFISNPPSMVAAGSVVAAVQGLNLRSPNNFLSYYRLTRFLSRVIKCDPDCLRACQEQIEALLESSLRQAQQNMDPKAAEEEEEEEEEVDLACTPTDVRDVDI
RESULT_TYPE: IC50

Indicate the recorded IC50 value for this compound: NC(=O)[C@@H]1CCCN1CC1Cc2cccc3c(C4=C(c5c[nH]c6cc(F)ccc56)C(=O)NC4=O)cn(c23)C1 (stereo partly specified)
> 2000 nM

====

assay: Solubility measured in 10% solution in EtOH.; type: physicochemical; details: read-out: S
RESULT_TYPE: solubility (µg/mL)
Report as a plain number; the unit µg/mL is understood.

| COMPOUND | UNIT | solubility |
| --- | --- | --- |
| O=C1NC(=O)c2c1c1c3ccccc3ccc1c1c2c2cccc3c2n1C(CO)CC3 (centres undefined) | µg/mL | 2780 |
| O=C1NC(=O)c2c1c1c3ccc(Br)cc3[nH]c1c1c2c2cccc3c2n1CC(CO)C3 (centres undefined) | µg/mL | 830 |
| O=C1NC(=O)c2c1c1c3ccc(F)cc3[nH]c1c1c2c2cccc3c2n1CC(CO)C3 (centres undefined) | µg/mL | 890 |
| O=C1NC(=O)c2c1c1c3ccccc3[nH]c1c1c2c2cccc3c2n1C(CO)CC3 (centres undefined) | µg/mL | 570 |
| O=C1NC(=O)c2c1c1c3ccc(F)cc3[nH]c1c1c2c2cccc3c2n1C(CO)CC3 (centres undefined) | µg/mL | 620 |

State its solubility: COc1ccc2c(c1)[nH]c1c2c2c(c3c4cccc5c4n(c13)CC(CO)C5)C(=O)NC2=O (centres undefined)
490

# return recorded solubility for input O=C1NC(=O)c2c1c1c3ccc(C(F)(F)F)cc3[nH]c1c1c2c2cccc3c2n1CC(CO)C3 (centres undefined)
4810

State, in one line, measured solubility of O=C1NC(=O)c2c1c1c3ccccc3[nH]c1c1c2c2cccc3c2n1CC(CO)CC3 (centres undefined)
1070

Supply reported solubility belonging to this compound: O=C1NC(=O)c2c1c1c3ccccc3[nH]c1c1c2c2cccc3c2n1CC(CO)C3 (centres undefined)
120

====

molecular target: Cyclin-dependent kinase 4/cyclin D1 (Homo sapiens, UniProt P11802); experiment: Inhibition of Cyclin D1-cyclin-dependent kinase 4.; assay type: protein-complex assay
Note to self: use Criterion met only for IC50 readings below 20 nM; a reading exactly at 20 nM still gets Criterion not met.

Hello, is IC50 of the following compound strictly smaller than 20 nM? O=C1NC(=O)c2c1c1c3ccccc3ccc1c1c2c2cccc3c2n1CC(CO)C3 (centres undefined)
Criterion not met

Does the reported IC50 of O=C1NC(=O)c2c1c1c3ccccc3ccc1c1c2c2cccc3c2n1CCC3CO (centres undefined) stay below 20 nM?
Criterion not met

is_below(IC50, 20 nM) for O=C1NC(=O)c2c1c1c3ccccc3[nH]c1c1c2c2cccc3c2n1C(CO)CC3 (centres undefined) ?
Criterion met

====

system: HCT-116; assay: Antiproliferative activity against HCT116 (human colon carcinoma) cell line.; format: functional, cell-based
pIC50: −log10 of the molar value.
Please note: 1 applies when pIC50 is 6 or greater, and 0 applies otherwise.

Reference set (5 entries):
| COMPOUND | SYSTEM | CAT |
| --- | --- | --- |
| O=C1NC(=O)c2c1c1c3ccc(F)cc3[nH]c1c1c2c2cccc3c2n1CC(CO)C3 (stereo not drawn) | HCT-116 | 1 |
| COc1ccc2c(c1)[nH]c1c2c2c(c3c4cccc5c4n(c13)CC(CO)C5)C(=O)NC2=O (stereo not drawn) | HCT-116 | 0 |
| O=C1NC(=O)c2c1c1c3ccc(Br)cc3[nH]c1c1c2c2cccc3c2n1CC(CO)C3 (stereo not drawn) | HCT-116 | 1 |
| O=C1NC(=O)c2c1c1c3ccccc3[nH]c1c1c2c2cccc3c2n1CC(CO)CC3 (stereo not drawn) | HCT-116 | 1 |
| COC(=O)CC(NCC1Cc2cccc3c(C4=C(c5c[nH]c6cc(F)ccc56)C(=O)NC4=O)cn(c23)C1)C(=O)OC (stereo not drawn) | HCT-116 | 0 |

Is the recorded value of pIC50 equal to or greater than 6 for this compound? NC(=O)[C@@H]1CCCN1CC1Cc2cccc3c(C4=C(c5c[nH]c6cc(F)ccc56)C(=O)NC4=O)cn(c23)C1 (stereo partly drawn)
0

# bool: pIC50 of CNCC1Cc2cccc3c(C4=C(c5c[nH]c6cc(F)ccc56)C(=O)NC4=O)cn(c23)C1.Cl (stereo not drawn) >= 6
0

====

system: HCT-116; experiment: Antiproliferative activity against HCT116 (human colon carcinoma) cell line.; assay type: functional, cell-based
pIC50: −log10 of the molar value.
Rule: pIC50 under 6 gives no (0), otherwise yes (1).

| MOLECULE | CAT |
| --- | --- |
| O=C1NC(=O)c2c1c1c3ccccc3[nH]c1c1c2c2cccc3c2n1CCC3CO (stereo not given) | yes (1) |

API: the following record is the query input.
Decide: pIC50 of O=C1NC(=O)C(c2cn3c4c(cccc24)CC(CCl)C3)=C1c1c[nH]c2cc(F)ccc12 (stereo not given) >= 6?
no (0)

====

target: Cyclin-dependent kinase 2/cyclin E (Homo sapiens); assay: Inhibition of Cyclin E-cyclin-dependent kinase 2 mediated RbING-phosphorylation
Each record here notes measured IC50.
Lab book: enter the figure in nM, no units written.

Please review the entries below; each comes with its answer.
| COMPOUND | UNIT | IC50 |
| --- | --- | --- |
| O=C1NC(=O)c2c1c1c3ccc(F)cc3[nH]c1c1c2c2cccc3c2n1C(CO)CC3 (stereo not drawn) | nM | 79 |
| COc1ccc2c(c1)[nH]c1c2c2c(c3c4cccc5c4n(c13)CC(CO)C5)C(=O)NC2=O (stereo not drawn) | nM | 284 |
| Cn1ccc2ccc3c(c4c(c5c6cccc7c6n(c35)CC(CO)C7)C(=O)NC4=O)c21 (stereo not drawn) | nM | 650 |
| O=C1NC(=O)c2c1c1c3ccc(F)cc3[nH]c1c1c2c2cccc3c2n1CC(CO)C3 (stereo not drawn) | nM | 141 |
| O=C1NC(=O)c2c1c1c3ccccc3[nH]c1c1c2c2cccc3c2n1C(CO)CC3 (stereo not drawn) | nM | 219 |

Please turn your attention to the following entry.
State IC50 on Cyclin-dependent kinase 2/cyclin E (Homo sapiens). Entry: O=C1NC(=O)c2c1c1c3ccccc3[nH]c1c1c2c2cccc3c2n1CC(CO)C3 (stereo not drawn)
217

====

target: Cyclin-dependent kinase 4/cyclin D1 (Homo sapiens, UniProt P11802); assay: Inhibition of Cyclin D1-cyclin-dependent kinase 4.; assay type: protein-complex assay
RESULT_TYPE: IC50 (nM)
Quick reminder: number only, in nM, skip the unit.

Consider the compound O=C1NC(=O)c2c1c1c3ccccc3ccc1c1c2c2cccc3c2n1C(CO)CC3 (stereo unspecified) . State its measured IC50.
175

Specify IC50 for Cn1ccc2ccc3c(c4c(c5c6cccc7c6n(c35)CC(CO)C7)C(=O)NC4=O)c21 (stereo unspecified) and stop.
84

For the compound O=C1NC(=O)c2c1c1c3ccc(F)cc3[nH]c1c1c2c2cccc3c2n1CC(CO)C3 (stereo unspecified) , give its reported IC50.
22

Report IC50 for O=C1NC(=O)c2c1c1c3ccccc3[nH]c1c1c2c2cccc3c2n1CC(CO)C3 (stereo unspecified)
71

State, in one line, measured IC50 of COc1ccc2c(c1)[nH]c1c2c2c(c3c4cccc5c4n(c13)CC(CO)C5)C(=O)NC2=O (stereo unspecified)
15

Return value of IC50 for input O=C1NC(=O)c2c1c1c3ccc(C(F)(F)F)cc3[nH]c1c1c2c2cccc3c2n1CC(CO)C3 (stereo unspecified) , no commentary.
23

Source of measurements: ChEMBL document CHEMBL1149211
